Values compiled from the Immune Epitope Database (IEDB).

Target: HLA-B*15:01
Assay: IEDB peptide-MHC binding, purified MHC/direct/fluorescence; filed as Kd, often an IC50 or EC50 that approximates it; bounds were set here for any values at or beyond the usual limits of such assays
Conditions: source organism: Rickettsia conorii
pKd: −log10 of the molar value.
readout: pKd

Assign pKd to the following record: RTGDIGCFK
≤ 4.70

====

Biological target: HLA-A*26:01
Test: IEDB peptide-MHC binding, purified MHC/competitive/radioactivity; filed as Kd, often an IC50 or EC50 that approximates it; bounds were set here for any values at or beyond the usual limits of such assays
Settings: source organism: Mammarenavirus whitewaterense
Listed below: Kd values for each entry.

> print(dat)
   sequence.string  reported.value
1        CSYKIGHHV       ≥ 64.5 µM

Turning now to a further sequence:
Recall and state the measured Kd for ELINIPYCNY .
0.227 µM
